Parameter: Int (fluorescence emission). Scope: all listed entries.
Molecular target: CquiOBP5 (Culex quinquefasciatus)
Sequence (C7BDZ9 entry or part of it): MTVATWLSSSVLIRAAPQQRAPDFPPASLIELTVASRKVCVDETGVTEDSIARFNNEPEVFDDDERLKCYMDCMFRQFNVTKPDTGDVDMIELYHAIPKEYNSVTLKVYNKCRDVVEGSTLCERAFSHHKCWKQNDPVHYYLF
Test: biochemical
Assay type: binding
Details: CquiOBP5; residual NPN fluorescence, normalized to 100 prior to ligand; screen at 2–20 μM ligand
Answer as a number with no unit attached.

Example molecules with recorded Int (fluorescence emission):
# MOLECULE, NUMERIC VALUE
data = [
    ("CCCCCC(O)CC (stereo not drawn) [3-Octanol, 3-octanol]", 85),
    ("CC(=O)OC/C=C(\\C)CCC=C(C)C [Geranyl acetate, geranyl acetate]", 81),
    ("CCCCCCCCCC[C@H](OC(C)=O)[C@H]1CCCC(=O)O1 [MOP, (5R,6S)-6-acetoxy-5-hexadecanolide]", 52),
]

Which Int (fluorescence emission) value is on record for O=Cc1ccccc1 [Benzaldehyde, benzaldehyde] ?
93

Sample CC1CCC(O)CC1 (stereo not drawn) [4-Methylcyclohexanol] — what was its Int (fluorescence emission)?
93

Quick one: Int (fluorescence emission) for CC12CCC(CC1=O)C2(C)C (stereo not drawn) [Camphor, camphor] ?
89

What value of Int (fluorescence emission) has been recorded for this entry: c1ccc2[nH]ccc2c1 [Indole, indole]
80

Name the reported Int (fluorescence emission) value associated with the molecule O=C1CCCCC1 [Cyclohexanone, cyclohexanone]
82

Given the molecule CC12CCC(CC1)C(C)(C)O2 [Eucalyptol, eucalyptol] , what is its reported Int (fluorescence emission)?
73

Consider the molecule shown here: C=CC(O)CCCCC (stereo not drawn) [1-Octen-3-ol, 1-octen-3-ol] What is its recorded Int (fluorescence emission)?
59

So what's the measured Int (fluorescence emission) for this one? CC1CCC(C(C)(C)O)C(O)C1 (stereo not drawn) [PMD, p-mentan-3,8-diol]
61

Name the reported Int (fluorescence emission) value associated with the molecule C=CC1(C)CCC(C(C)(C)O)O1 (stereo not drawn) [Linalool oxide, linalool oxide]
94

Record request: Int (fluorescence emission) value, item CC(=O)c1ccccc1 [Acetophenone, acetophenone]
87

Entry CC12CCC(C1)C(C)(C)C2=O (stereo not drawn) [Fenchone, fenchone] has what Int (fluorescence emission)?
92

Name the recorded Int (fluorescence emission) for CCCCCCO [1-Hexanol, 1-hexanol] .
88

Reported Int (fluorescence emission) for COc1ccccc1OC [1,2-Dimethoxybenzene, 1,2-dimethoxybenzene] : what is it?
87

Request the reported Int (fluorescence emission) associated with OCCc1ccccc1 [2-Phenylethanol, 2-phenylethanol]
95

I am curious: what Int (fluorescence emission) value has been reported for CCN(CC)C(=O)c1cccc(C)c1 [DEET, N,N-diethyl-3-methylbenzamide] ?
92

Sample CC/C=C\CCOC(C)=O [(Z)-3-Hexenyl acetate, (Z)-3-hexenyl acetate] — what was its Int (fluorescence emission)?
83
